# Tested on: M. tuberculosis strains
# measurement-notes: Minimum Inhibitory Concentration (MIC) against M. tuberculosis strains, resazurin microtiter plate assay
# Type: cell-based, Mycobacterium tuberculosis
# cond: Mycobacterium tuberculosis, Table 5; Middlebrook 7H9, 37° C. six days, resazurin fluorescence after 48 hours; read-out: MIC90
measure: MIC90 (µM)

> print(dat)
                            compound.string  value.qualifier  value
1  CNC(=O)c1cc(C2=CCOCC2)c2c(C)c(-c3ccncc3)c(C)cc2n1                =   12.5
2  CNC(=O)c1cc(C2=CCCCC2)c2c(C)c(-c3ccncc3)c(C)cc2n1                =      3
3  Cc1cc2nc(C(=O)NCCO)cc(-c3ccccc3)c2c(C)c1-c1ccncc1                =    0.3
4  CNC(=O)c1cc(-c2ccccc2)c2c(C)c(-c3ccncc3)c(C)cc2n1                =    0.3
5  Cc1cc2nc(C(=O)N[C@H]3CCC[C@@H]3O)cc(-c3ccccc3F)c2c(C)c1-c1ccncc1                <   0.16
6  Cc1cc2nc(C(=O)NS(C)(=O)=O)cc(-c3ccccc3Cl)c2c(C)c1-c1ccncc1                =      5

----------
# System: M. tuberculosis strains
# measurement-notes: Minimum Inhibitory Concentration (MIC) against M. tuberculosis strains, resazurin microtiter plate assay
# Assay type: cell-based, Mycobacterium tuberculosis
# cond: Mycobacterium tuberculosis, Table 5; Middlebrook 7H9, 37° C. six days, resazurin fluorescence after 48 hours; read-out: MIC90
measure: MIC90 (µM)

> print(dat)
                                   molecule  measure  measurement.units  value.qualifier  value
1  Cc1cc2nccc(-c3cccnc3)c2c(C)c1-c1ccc(CN2CCOCC2)cc1 [Compound 93]    MIC90                 µM                =    1.6
2  Cc1cc2nc(C(=O)N[C@@H]3CCC[C@H]3O)cc(-c3ccccc3F)c2c(C)c1-c1ccncc1 [Compound 98]    MIC90                 µM                =    0.6
3  CNC(=O)c1cc(N2CCN(C)CC2)c2c(C)c(-c3ccncc3)c(C)cc2n1 [Compound 100]    MIC90                 µM                >     50
4  CNC(=O)c1cc(N2CCNCC2)c2c(C)c(-c3ccncc3)c(C)cc2n1 [Compound 101]    MIC90                 µM                >     50
